- ASSAY_TARGET: UniProtKB P37288
- PROCEDURE_SUMMARY: In-vitro receptor binding assay (3H-arginine-8-vasopressin), V1a
QUANTITY: IC50 (µM)

Solved entries (count: 6):
COMPOUND	ASSAY_TARGET	IC50 (µM)
O=C(c1ccc(O)cc1)N1CCC2(C=CCCC2)Cc2ccccc21 (stereo not shown) [Compound 78]	UniProtKB P37288	0.51
O=C(NCCO)C1=CC2(CC1)CCN(C(=O)c1ccc(NC(=O)c3ccccc3F)cc1)c1ccccc1C2 (stereo not shown) [Compound 8]	UniProtKB P37288	0.004
COC(=O)CNC(=O)C1=CC2(CC1)CCN(C(=O)c1ccc(NC(=O)c3ccccc3-c3ccccc3)cc1)c1ccccc1C2 (stereo not shown) [Compound 12]	UniProtKB P37288	0.013
O=C(c1cccc(Cl)c1)N1CCC2(C=CCCC2)Cc2ccccc21 (stereo not shown) [Compound 46]	UniProtKB P37288	3.5
O=C(c1cccc(C(F)(F)F)c1)N1CCC2(C=CCCC2)Cc2ccccc21 (stereo not shown) [Compound 56]	UniProtKB P37288	4.3
O=C(c1ccc(OCC2CC2)cc1)N1CCC2(C=CCCC2)Cc2ccccc21 (stereo not shown) [Compound 181]	UniProtKB P37288	0.066

[I] N#Cc1ccc(C(=O)N2CCC3(CCCCC3)Cc3ccccc32)cc1 [Compound 24]
[II] CN(C)CCCNC(=O)C1=CC2(CC1)CCN(C(=O)c1ccc(NC(=O)c3cc(F)ccc3F)cc1)c1ccccc1C2 (stereo not shown) [Compound 221]
Request: Rank I against II by their IC50 values and give the higher one. Returns: label corresponding to the selected item.
Result: I

* * *

- ASSAY_TARGET: UniProtKB P37288
- PROCEDURE_SUMMARY: In-vitro receptor binding assay (3H-arginine-8-vasopressin), V1a
QUANTITY: IC50 (µM)

Solved entries (count: 4):
COMPOUND	UNIT_DESCRIPTOR	IC50
O=C(Nc1ccc(C(=O)N2CCC3(CCCCC3=O)Cc3ccccc32)cc1)c1ccccc1-c1ccccc1 (stereo not shown) [Compound 30]	µM	0.035
COc1cc(NC(=O)c2cc(F)ccc2C)ccc1C(=O)N1CCC2(C=C(C=O)CC2)Cc2ccccc21 (stereo not shown)	µM	0.055
Cc1cccc(C(=O)Nc2ccc(C(=O)N3CCC4(C=CCCC4)Cc4ccccc43)cc2)c1 (stereo not shown)	µM	0.05
Cc1ncccc1C(=O)Nc1ccc(C(=O)N2CCC3(C=CCCC3)Cc3ccccc32)cc1 (stereo not shown)	µM	0.035

[1] O=C(c1ccc(Cl)cc1)N1CCC2(C=CCCC2)Cc2ccccc21 (stereo not shown)
[2] Cc1cc(F)ccc1C(=O)Nc1ccc(C(=O)N2CCC3(C=CCCC3)Cc3ccccc32)cc1 (stereo not shown) [Compound 99]
[3] Cc1ccccc1C(=O)Nc1ccc(C(=O)N2CCC3(C=CCCC3)Cc3ccccc32)c(Cl)c1 (stereo not shown)
Request: Order the records by IC50, with each subsequent value no larger than the one before. Field: ranking. Enter the labels in the order requested.
Result: 1, 3, 2

* * *

- ASSAY_TARGET: V1a (Homo sapiens)
- Sequence (P37288 whole entry): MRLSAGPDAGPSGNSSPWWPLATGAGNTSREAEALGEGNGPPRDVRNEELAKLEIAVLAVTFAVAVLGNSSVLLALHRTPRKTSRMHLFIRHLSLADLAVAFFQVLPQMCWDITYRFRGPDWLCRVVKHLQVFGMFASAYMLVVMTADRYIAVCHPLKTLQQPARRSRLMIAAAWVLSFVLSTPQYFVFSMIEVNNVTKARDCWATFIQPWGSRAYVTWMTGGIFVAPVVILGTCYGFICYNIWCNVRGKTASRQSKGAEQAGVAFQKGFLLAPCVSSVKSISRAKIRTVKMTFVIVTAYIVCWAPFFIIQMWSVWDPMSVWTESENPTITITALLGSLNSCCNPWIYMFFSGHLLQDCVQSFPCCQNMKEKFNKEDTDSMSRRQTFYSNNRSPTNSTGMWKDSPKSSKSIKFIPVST
- PROCEDURE_SUMMARY: In-vitro receptor binding assay (3H-arginine-8-vasopressin), V1a
QUANTITY: IC50 (µM)

Solved entries (count: 2):
COMPOUND	IC50 / µM
COc1ccccc1C(=O)Nc1ccc(C(=O)N2CCC3(C=CCCC3)Cc3ccccc32)cc1 (stereo not drawn)	0.03
Cc1ccc(F)cc1C(=O)Nc1ccc(C(=O)N2CCC3(C=C(C(=O)NCCCN4CCOCC4)CC3)Cc3ccccc32)cc1 (stereo not drawn)	0.016

[A] O=C(c1ccc(C(F)(F)F)cc1)N1CCC2(C=CCCC2)Cc2ccccc21 (stereo not drawn)
[B] COc1cc(-n2ccc(CO)c2)ccc1C(=O)N1CCC2(C=CCCC2)Cc2ccccc21 (stereo not drawn)
Request: Select the item whose IC50 value is smaller, choosing between A and B . Returns: label corresponding to the selected item.
Result: B
(B: 0.042 µM, A: 1.6 µM)

Hello, the source for this data is patent US7691844B2, in case you need it.
